Target: T1, recombinant human TIGIT (human, UniProt Q495A1 22-141, limits assumed)
T1 construct: recombinant human TIGIT used in Carterra SPR; also called hTIGIT
T1 sequence (looked up): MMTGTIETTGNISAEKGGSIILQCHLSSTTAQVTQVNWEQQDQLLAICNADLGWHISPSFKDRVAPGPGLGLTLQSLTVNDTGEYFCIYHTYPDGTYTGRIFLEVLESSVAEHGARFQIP
Assay: SPR Carterra, average
Each entry below lists one item and its recorded kon value.
Give the quantity in M⁻¹ s⁻¹, number only.

Query block: # get_value(readout='kon', item= TIGIT-SC55 (Fc fusion, VHH-Fc fusion in assay) VHH: EVQLVESGGGLVQPGGSLRLSCAASGFPFDDYAMGWFRQAPGKERELVAVIRWTGMNTHYADSVKGRFTISADNSKNTAYLQMNSLKPEDTAVYYCAKGIAVAGAFDYWGQGTLVTVSS )
Result block: 90600

Query block: What value of kon has been recorded for this entry: TIGIT-SC132 (Fc fusion, VHH-Fc fusion in assay) VHH: EVQLVESGGGLVQPGGSLRLSCAASGFTLENNMMGWFRQAPGKEREFVAAISASGTLRAYADSVKGRFTISADNSKNTAYLQMNSLKPEDTAVYYCATWRPNRGRYYDWYFDLWGQGTLVTVSS
Result block: 197000

Query block: Can you share its kon? I mean this binder: TIGIT-SC83 (Fc fusion, VHH-Fc fusion in assay) VHH: EVQLVESGGGLVQPGGSLRLSCAASGRTFSDDAMGWFRQAPGKEREFVAAISRSGGNTYYADSVKGRFTISADNSKNTAYLQMNSLKPEDTAVYYCAKWFYYGSGLYTLDVWGQGTLVTVSS
Result block: 132000

Query block: Form field: reported kon of TIGIT-SC109 (Fc fusion, VHH-Fc fusion in assay) VHH: EVQLVESGGGLVQPGGSLRLSCAASGRDISSYIMGWFRQAPGKERELVAIIDTNGDDTLYADSAKGRFTISADNSKNTAYLQMNSLKPEDTAVYYCANGGRVWWAFDYWGQGTLVTVSS
Result block: 38700
